# Protocol summary: CCTE_Mundy_HCI_Cortical_Synap_Neur_Matur_NeuriteSpotCountPerNeuron: CCTE's Synaptogenesis and Neurite Maturation Assay in rat cortical cells for Neurite Spot Count per Neuron Count, Mundy Lab (AID 2284215)
Calls of active or inactive are those of the source. The calls were made as follows: active = hit-call score of the fitted dose curve at least 0.9, where 1 is the maximum; inactive = score below 0.9.
Write down the outcome that applies. Available outcomes: 1 (active), -1 (inactive)

Past entries and their recorded results:
N#CCCNCCC#N | -1
CCCCC(CC)COC(=O)COc1ccc(Cl)cc1C (centres undefined) | 1
N[C@@H](CCC(=O)O)C(=O)O | -1

Data request: How did this test come out for c1ccc2scnc2c1 ?
Data returned: -1

* * *

# Protocol summary: CEETOX_H295R_PROG: CeeTox H295R High-throughput Steroidogenesis Assay for Progesterone (PROG) (AID 2283442)
# Experimental context: actives raise or lower the signal
Active and inactive are the calls of the source. Rule for the calls: active = hit-call score of the fitted dose curve at least 0.9, where 1 is the maximum; inactive = score below 0.9.
Outcomes you can answer with include only these: active, inactive

OCCCO | inactive
COc1ccc2[nH]cc(CCNC(C)=O)c2c1 | active
c1coc(CNc2ncnc3nc[nH]c23)c1 | inactive
O=C(c1ccc(OCCN2CCCCC2)cc1)c1c(-c2ccc(O)cc2)sc2cc(O)ccc12 | inactive
CCCCCCCCCCCCN1CCOCC1 | active
CC=CC(=O)C1=C(C)C=CCC1(C)C | inactive
OCC=Cc1ccccc1 | inactive
CC(C)(C)c1cccc(O)c1 | inactive
O=C(OCc1ccccc1)c1ccccc1O | active
C#C[C@]1(O)CC[C@H]2[C@@H]3CCc4cc(O)ccc4[C@H]3CC[C@@]21C | active

Data request: Recorded call for CC(=O)c1ccc2ccccc2c1 ?
Data returned: inactive
